- system-tested: myeloperoxidase (Homo sapiens, UniProt P05164)
- Sequence (P05164 49-745): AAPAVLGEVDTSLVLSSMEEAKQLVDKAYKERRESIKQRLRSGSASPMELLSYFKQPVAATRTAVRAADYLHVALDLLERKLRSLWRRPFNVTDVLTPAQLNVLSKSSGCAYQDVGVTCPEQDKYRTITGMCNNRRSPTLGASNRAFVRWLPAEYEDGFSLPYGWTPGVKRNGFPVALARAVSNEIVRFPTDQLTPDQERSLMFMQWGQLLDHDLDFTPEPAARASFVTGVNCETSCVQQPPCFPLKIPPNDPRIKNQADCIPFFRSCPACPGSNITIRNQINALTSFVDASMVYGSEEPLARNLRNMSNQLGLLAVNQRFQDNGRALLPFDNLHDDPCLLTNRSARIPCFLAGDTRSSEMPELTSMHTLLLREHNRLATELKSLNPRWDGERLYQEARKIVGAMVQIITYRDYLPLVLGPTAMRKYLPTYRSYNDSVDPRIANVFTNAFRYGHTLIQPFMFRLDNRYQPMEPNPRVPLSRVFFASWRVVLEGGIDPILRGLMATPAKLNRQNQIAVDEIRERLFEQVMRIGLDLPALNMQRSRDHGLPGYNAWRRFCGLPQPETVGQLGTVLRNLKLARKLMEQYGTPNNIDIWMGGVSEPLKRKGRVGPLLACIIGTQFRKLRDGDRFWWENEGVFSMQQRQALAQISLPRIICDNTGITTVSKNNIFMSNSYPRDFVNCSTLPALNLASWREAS
- procedure-text: MPO Peroxidation Assay (Amplex Red Assay)
- Type: biochemical
- measurement-conditions: potency range class, read-out: Amplex Red Assay IC50 value
pIC50: −log10 of the molar value.
outcome-measure: pIC50

So the reported pIC50 for NCc1ccc(C(CCN[C@H]2CC[C@H](c3ccccc3)CC2)c2cc(N)nc3[nH]nnc23)cc1 (some centres unmarked) , on myeloperoxidase (Homo sapiens, UniProt P05164), turned out to be 6.00 to 7.00

// pIC50 (myeloperoxidase (Homo sapiens, UniProt P05164)) for Nc1cc([C@H](CCCN2CCC3(CC2)NC(=O)Nc2ccccc23)c2ccccc2)c2nn[nH]c2n1 = 5.00 to 6.00

The observed pIC50 for Nc1cc(C(CCNCc2cccc(C(F)(F)F)c2)c2ccccc2)c2nn[nH]c2n1 (centres unmarked) when tested with myeloperoxidase (Homo sapiens, UniProt P05164) stands at 6.00 to 7.00

pIC50 for myeloperoxidase (Homo sapiens, UniProt P05164) with input Nc1cc(C(CNCCc2ccccc2)c2ccccc2)c2nn[nH]c2n1 (centres unmarked) equals 5.00 to 6.00

I looked up Nc1cc(C(CCNCc2ccccc2OC(F)(F)F)c2ccccc2)c2nn[nH]c2n1 (centres unmarked) and its pIC50 for myeloperoxidase (Homo sapiens, UniProt P05164) was 5.00 to 6.00

Field pIC50 (system: myeloperoxidase (Homo sapiens, UniProt P05164)) for entry Nc1cc(C(Cc2ccccc2Cl)c2ccccc2)c2nn[nH]c2n1 (centres unmarked) = 6.00 to 7.00

Kindly note: myeloperoxidase (Homo sapiens, UniProt P05164), COc1ccc(CNCCC(c2ccccc2)c2cc(N)nc3[nH]nnc23)cc1 (centres unmarked) , pIC50 value reported: 6.00 to 7.00

pIC50 on myeloperoxidase (Homo sapiens, UniProt P05164) for CC(C)(NCCC(c1ccccc1)c1cc(N)nc2[nH]nnc12)c1ccccc1 (centres unmarked) is 6.00 to 7.00

Further cases:
Assay myeloperoxidase (Homo sapiens, UniProt P05164), sample Nc1cc(C(CCNC2(C(F)(F)F)CCC(c3ccccc3)CC2)c2ccccc2)c2nn[nH]c2n1 (centres unmarked) , pIC50 read: 5.00 to 6.00

The reported myeloperoxidase (Homo sapiens, UniProt P05164) pIC50 of NC(=O)CN(CC[C@H](c1ccccc1)c1cc(N)nc2[nH]nnc12)C12CCC(c3ccccc3)(CC1)CC2 is 6.00 to 7.00
